System: biotinyl-Phe-oxazolone
Experiment: self-aminoacylation, catalytic enhancement (BFO) (fold over background); higher = more active; k-Seq, kA / k0A0; sequences stand for … in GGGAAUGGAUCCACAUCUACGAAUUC…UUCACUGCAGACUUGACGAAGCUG
Variants at the floor of the assay were thinned out.
Respond with TRUE for self-aminoacylation values of 9 and above, FALSE for values below.

Examples with answers:
# sequence.data, qualitative.label
rows = [
    ("AAGUUUGCUAAUGGUCGCGAG [Fam3.1 aminoacylation ribozyme variant]", "FALSE"),
    ("AUUCACCAAGCUCAUCGGGUG [Fam2.2 aminoacylation ribozyme variant]", "TRUE"),
    ("AUUCACCUAGGUCAUGGGGUG [Fam2.2 aminoacylation ribozyme variant]", "TRUE"),
]

// inclusive: self-aminoacylation at least 9? input: AAUACCCUGGUGAUCGAGUGA [Fam2.1 aminoacylation ribozyme variant]
TRUE

Assess whether reported self-aminoacylation for AUUGACCUAGAUCAUCGGGUG [Fam2.2 aminoacylation ribozyme variant] sits at 9 or higher.
TRUE

----------
Please respond with reported self-aminoacylation for every item in the list.
System: biotinyl-Val-oxazolone
Assay: self-aminoacylation, catalytic enhancement (BVO) (fold over background); higher = more active; k-Seq, kA / k0A0; sequences stand for … in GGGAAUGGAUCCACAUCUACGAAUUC…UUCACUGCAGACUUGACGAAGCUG
Fewer inactive variants are shown than the library holds.
Numbers only.

Example results:
# sequence.data, self-aminoacylation
rows = [
    ("CUACUUAAACCAAUCGGUCUG [Fam1A.1 aminoacylation ribozyme variant]", 0.67),
    ("CCACACUUCAAGCAAUCGGAU [Fam1B.1 aminoacylation ribozyme variant]", 1.38),
]

Respectfully, I request self-aminoacylation for each entry included below.
1. AUUCACCUAUGUCUUCGGGUG [Fam2.2 aminoacylation ribozyme variant]
2. AUUCGCCUAGGUCAUCCGGUG [Fam2.2 aminoacylation ribozyme variant]

1: 2.02; 2: 6.7

For each of the sequences below, state self-aminoacylation.
1. CCACACUUAAAGCAAUCGGCC [Fam1B.1 aminoacylation ribozyme variant]
2. AAUUUUGCUAACAGUCGCAAG [Fam3.1 aminoacylation ribozyme variant]
3. AUUACCCUAGUCAUCGAGUAA [Fam2.1 aminoacylation ribozyme variant]
4. CUAAUUCAAACAAUCGAUCUG [Fam1A.1 aminoacylation ribozyme variant]

1.97
1.58
1.24
0.561

----------
Test system: biotinyl-Val-oxazolone
Assay: self-aminoacylation, catalytic enhancement (BVO) (fold over background); higher = more active; k-Seq, kA / k0A0; sequences stand for … in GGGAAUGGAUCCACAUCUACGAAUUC…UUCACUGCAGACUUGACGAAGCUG
This sample holds only a part of the variants without activity.
Give measured self-aminoacylation for each item. Keep answers brief.
Answers are plain numbers.

# sequence.data, self-aminoacylation
records = [
    ("AAGUUUGGUAAUAGUCGCAAC [Fam3.1 aminoacylation ribozyme variant]", 1.47),
    ("AUAUUUCAAACAAUCGGUCUG [Fam1A.1 aminoacylation ribozyme variant]", 0.834),
    ("AAGUUUGCUAAUAGUCGCGCG [Fam3.1 aminoacylation ribozyme variant]", 2.94),
    ("AGGUUUGCUACUAGUCGCAAG [Fam3.1 aminoacylation ribozyme variant]", 1.69),
    ("AAGCUUGCUAAUAGGCGCAAG [Fam3.1 aminoacylation ribozyme variant]", 1.16),
]

Field: self-aminoacylation. Fill in for each record below.
1. GUUCACCUAGGUCAUCGGAUG [Fam2.2 aminoacylation ribozyme variant]
2. AUUCACUUAGGUCCUCGGGUG [Fam2.2 aminoacylation ribozyme variant]
3. AUUCACCUAGGCCAACGGGUG [Fam2.2 aminoacylation ribozyme variant]

1. 0.979
2. 2.96
3. 2.04

Item AGUCACCUAGGUCAUGGGGUG [Fam2.2 aminoacylation ribozyme variant] : provide self-aminoacylation
4.11

// data source = the supplement of paper PMC9233669
